experiment: time dependent solubility in 2.5% aqueous di-sodium pamoate solution by HPLC; assay type: physicochemical; conditions: 2.5% aqueous di-sodium pamoate solution, aqueous with cosolvent or surfactant or cyclodextrin, thermodynamic from solid, 90 minutes (1.50 h), read-out: Concentration (solubility by HPLC)
QUANTITY NAME: solubility at 90 minutes (µg/mL)
Dear colleague, please return just the value in µg/mL, with no unit written.

Prompt: Return the recorded solubility at 90 minutes value; entry: Cc1cc(-c2nnc3c4ccccc4c(OCc4cn(C)nn4)nn23)no1 [L-822, 179]
Response: 1920

Origin of values: patent US6534505B2
